Give measured pEC50 for each item. Keep answers brief.
# systemUnderTest: T1, human CD3 (human, UniProt P07766 23-207; P04234 22-171; P09693 23-182)
# T1 construct: whole, on cells; also called hCD3; CD3 on Jurkat cells
# T1 sequence (P07766 23-207, chain 1 of 3): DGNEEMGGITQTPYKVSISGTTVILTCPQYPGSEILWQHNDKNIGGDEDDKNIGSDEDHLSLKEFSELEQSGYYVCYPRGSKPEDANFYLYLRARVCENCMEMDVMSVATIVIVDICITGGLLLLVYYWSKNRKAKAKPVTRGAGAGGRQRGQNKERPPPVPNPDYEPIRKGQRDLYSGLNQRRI
# T1 sequence (P04234 22-171, chain 2 of 3): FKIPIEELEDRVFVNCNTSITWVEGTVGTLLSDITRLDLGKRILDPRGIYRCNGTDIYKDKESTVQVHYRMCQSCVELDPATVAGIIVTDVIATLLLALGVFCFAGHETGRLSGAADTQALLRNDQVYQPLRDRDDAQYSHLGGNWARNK
# T1 sequence (P09693 23-182, chain 3 of 3): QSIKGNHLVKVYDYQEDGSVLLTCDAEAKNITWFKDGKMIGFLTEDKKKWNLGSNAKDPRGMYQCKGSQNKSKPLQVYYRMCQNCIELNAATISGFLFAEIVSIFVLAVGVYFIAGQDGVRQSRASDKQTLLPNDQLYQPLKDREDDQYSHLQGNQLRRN
# assayNotes: FACS on Jurkat cells
Answers are plain numbers, as −log10 of the molar value.

Answered cases to consult:
[
  {
    "binder": "hu40E9-L5H7 (antibody, V domains shown) VH: EVQLVQSGAEVKKPGSSVKVSCKASGYTFSSYVIHWVRQAPGQGLEWMGYINPGNGVIKYNEKFKGRVTLTSDKSTSTAYMELSSLRSEDTAVYYCARDSYSSYDGFAYWGQGTLVTVSS VL: EIVLTQSPDFQSVTPKEKVTITCSASSSVSYMHWYQQKPDQSPKRLIYDTSKLASGVPSRFSGSGSGTDFTLTINSLEAEDAATYYCQQWRSSPPTFGGGTKVEIK",
    "quantityName": "pEC50",
    "reportedMeasurement": 9.32
  },
  {
    "binder": "hu40E9-L6H3 (antibody, V domains shown) VH: EVQLVQSGAEVKKPGSSVKVSCKASGYTFSSYVIHWVRQAPGQGLEWMGYINPYNDVIKYNEKFKGRVTLTSDKSTSTAYMELSSLRSEDTAVYYCARDSYYSYDGFAYWGQGTLVTVSS VL: EIVLTQSPDFQSVTPKEKVTITCSASSSVSYMHWYQQKPDQSPKRLIYDTSKLASGVPSRFSGSGSGTDFTLTINSLEAEDAATYYCQQWRSWPPTFGGGTKVEIK",
    "quantityName": "pEC50",
    "reportedMeasurement": 9.10
  }
]

*Q* What does the record list as pEC50 for hu40E9-L4H8 (antibody, V domains shown) VH: EVQLVQSGAEVKKPGSSVKVSCKASGYTFSSYVIHWVRQAPGQGLEWMGYINPGNDVIKYNEKFKGRVTLTSDKSTSTAYMELSSLRSEDTAVYYCARESYSSYDGFAYWGQGTLVTVSS VL: EIVLTQSPDFQSVTPKEKVTITCSASSSVSYMHWYQQKPDQSPKRLIYDTSKLASGVPSRFSGSGSGTDFTLTINSLEAEDAATYYCQQWRSRPPTFGGGTKVEIK ?
*A* 7.57

Numbers sourced from patent US20250223358A1.
